Organism: Rattus norvegicus
TEST NAME: DrugMatrix - Regimen: Daily Repeat
Format: toxicity, organism-based, Sprague-Dawley
Parameters: regimen Daily Repeat, gender Male, age 6-8 weeks
ASSAY CONDITIONS: in vivo, iv, 0 mg/kg, 72 h, tissue Blood, dose level Control, time 3 day, vehicle 100 % SALINE
Quick reference for ABSOLUTE MONOCYTE among some compounds
Enter your answer as a number in CELLS/uL; do not include the unit.

Known results for compounds:
INSERT INTO results (compound, measurement_unit, measured_number) VALUES
  ('CC(=O)[C@]1(O)Cc2c(O)c3c(c(O)c2[C@@H](O[C@H]2C[C@H](N)[C@H](O)[C@H](C)O2)C1)C(=O)c1ccccc1C3=O [IDARUBICIN]', 'CELLS/uL', 307.67),
  ('Cc1c(N)nc([C@H](CC(N)=O)NC[C@H](N)C(N)=O)nc1C(=O)N[C@H](C(=O)N[C@H](C)[C@@H](O)[C@H](C)C(=O)N[C@H](C(=O)NCCc1nc(-c2nc(C(=O)NCCC[S+](C)C)cs2)cs1)[C@@H](C)O)[C@@H](O[C@@H]1O[C@@H](CO)[C@@H](O)[C@H](O)[C@@H]1O[C@H]1O[C@H](CO)[C@@H](O)[C@H](OC(N)=O)[C@@H]1O)c1c[nH]cn1.[Br-] [BLEOMYCIN A2]', 'CELLS/uL', 243.5),
  ('CO[C@@]12[C@H](COC(N)=O)C3=C(C(=O)C(C)=C(N)C3=O)N1C[C@@H]1N[C@@H]12 [MITOMYCIN]', 'CELLS/uL', 44.33);

--- query ---
// sample COC(=O)C[C@](O)(CCC(C)(C)O)C(=O)O[C@@H]1C(OC)=C[C@]23CCCN2CCc2cc4c(cc2[C@H]13)OCO4 [HARRINGTONINE] , its ABSOLUTE MONOCYTE was 94.67
